- Tested on: cellular dehydrogenase activity
- Run Parameters: 20 μM; composite Z-score vs DMSO
Observed Property: MTT
Respond with the number and no other words.

The compound CC(C)(C)NCC(O)c1ccccc1Cl (centres unmarked) , when measured on cellular dehydrogenase activity, yielded MTT of −0.706

###

- Test system: cytochrome c
- Type: cell-based, mouse
Counter-ions that a name gives are not always drawn.
Entries are sorted into classes by cyt c as follows: lower segment: < 0.03; middle segment: ≥ 0.03 and < 0.2; upper segment: ≥ 0.2

{"Compound": "CNC[C@H](O)c1cccc(O)c1", "Assigned Category": "lower segment"}
{"Compound": "CC(=O)N[C@@H](CC(C)C)C(=O)O", "Assigned Category": "upper segment"}
{"Compound": "C[C@@H]1CC[C@H]2C(C)(C)[C@H]3C[C@@]12CC[C@@]3(C)O", "Assigned Category": "lower segment"}

The entry to classify is CN1[C@@H]2CC[C@H]1C[C@@H](OC(=O)C(CO)c1ccccc1)C2 (some centres unmarked) [atropine sulfate] ; which class holds it? middle segment

The entry to classify is `CC1=C(/C=C/C(C)=C/C=C/C(C)=C/C=C/C=C(C)/C=C/C=C(C)/C=C/C2=C(C)CCCC2(C)C)C(C)(C)CCC1` ; which class holds it? lower segment

The entry to classify is `NC1(C(=O)O)CCC1` ; which class holds it? lower segment

The entry to classify is CN1CCN2c3ccccc3Cc3ccccc3C2C1 (centres unmarked) ; which class holds it? lower segment

The entry to classify is CC[N+]1(C)CCCC(OC(=O)C(O)(c2ccccc2)c2ccccc2)C1 (centres unmarked) [pipenzolate] ; which class holds it? middle segment

The entry to classify is `CO[C@H]1C[C@H](O[C@@H]2/C(C)=C/C[C@@H]3C[C@@H](C[C@]4(CC[C@H](C)[C@@H](C5CCCCC5)O4)O3)OC(=O)[C@@H]3C=C(C)/C(=N/O)[C@H]4OC/C(=C\C=C\[C@@H]2C)[C@]43O)O[C@@H](C)[C@@H]1O` ; which class holds it? upper segment

The entry to classify is `C[C@]12CC[C@H]3[C@@H](CCC4=CC(=O)CC[C@@]43C)[C@@H]1CC[C@@H]2O` ; which class holds it? lower segment

The entry to classify is `CO[C@H]1/C=C/O[C@@]2(C)Oc3c(C)c(O)c4c(O)c(c(/C=N/N5CCN(C)CC5)c(O)c4c3C2=O)NC(=O)/C(C)=C\C=C\[C@H](C)[C@H](O)[C@@H](C)[C@@H](O)[C@@H](C)[C@H](OC(C)=O)[C@@H]1C` ; which class holds it? upper segment

The entry to classify is `CC[N+](CC)(CC)CCOc1cccc(OCC[N+](CC)(CC)CC)c1OCC[N+](CC)(CC)CC` ; which class holds it? middle segment

The entry to classify is C[N+]12CCC(CC1)C(OC(=O)C(O)(c1ccccc1)c1ccccc1)C2 (centres unmarked) ; which class holds it? middle segment

The entry to classify is `COc1c2ccoc2c(OC)c2oc(=O)ccc12` ; which class holds it? upper segment

The entry to classify is `CC[N+](C)(C)Cc1ccccc1Br` ; which class holds it? upper segment

The entry to classify is `COc1ccc([C@@H]2Sc3ccccc3N(CCN(C)C)C(=O)[C@@H]2OC(C)=O)cc1` ; which class holds it? upper segment

The entry to classify is `Oc1cccc2cccnc12` ; which class holds it? lower segment

###

- Tested on: reactive oxygen species
- Type: cell-based, mouse
- Run Parameters: composite Z-score vs DMSO; Conc 20 μM
Listed below: ROS values for each entry.
Respond with the number and no other words.

{"Molecule": "Cc1onc(-c2ccccc2)c1C(=O)N[C@@H]1C(=O)N2[C@@H]1SC(C)(C)[C@@H]2C(=O)[O-].[Na+] [oxacillin sodium]", "ROS": 0.572}
{"Molecule": "Nc1nc2c(ncn2[C@H]2C[C@H](O)[C@@H](CO)O2)c(=O)[nH]1", "ROS": "−0.110"}
{"Molecule": "C[C@H](CCC(=O)O)[C@H]1CC[C@H]2[C@@H]3CC[C@@H]4CCCC[C@]4(C)[C@H]3CC[C@]12C", "ROS": 0.978}
{"Molecule": "CC[C@H]1OC(=O)[C@H](C)[C@@H](O[C@H]2C[C@@](C)(OC)[C@@H](O)[C@H](C)O2)[C@H](C)[C@@H](O[C@@H]2O[C@H](C)C[C@H](N(C)C)[C@H]2O)[C@](C)(OC)C[C@@H](C)C(=O)[C@H](C)[C@@H](O)[C@]1(C)O", "ROS": 0.293}
{"Molecule": "N[C@@H](C(=O)N[C@@H]1C(=O)N2C(C(=O)O)=C(Cl)CS[C@H]12)c1ccccc1", "ROS": 0.297}

Notebook: `COC(=O)N/N=C/c1c[n+]([O-])c2ccccc2[n+]1[O-]` , ROS read as −0.079

Notebook: `CC(C)(OC(=O)c1ccccc1)[C@@H]1Cc2cc3ccc(=O)oc3cc2O1` , ROS read as 0.710

Notebook: `CCN1CCN(C(=O)N[C@@H](C(=O)N[C@@H]2C(=O)N3[C@@H]2SC(C)(C)[C@@H]3C(=O)O)c2ccccc2)C(=O)C1=O` , ROS read as 0.645

Notebook: COc1ccc(-c2c(O)c3c(OC)c4c(cc3oc2=O)OC(C)(C)CC4)cc1 [dihydrorobustic acid, reference compound] , ROS read as −0.115

Notebook: CC(C)CCC[C@@H](C)[C@H]1CC[C@H]2[C@@H]3CCC4CCCC[C@]4(C)[C@H]3CC[C@]12C (some centres unmarked) , ROS read as 0.155

Notebook: COCCc1ccc(OCC(O)CNC(C)C)cc1 (centres unmarked) [metoprolol, reference compound] , ROS read as 0.652

###

- Test system: nuOXPHOS transcripts
- Type: cell-based, mouse
- Run Parameters: composite Z-score vs mock-treated (DMSO) wells; Conc 20 μM
Listed below: nucOX values for each entry.
Respond with the number and no other words.

Worked set:
{"Compound": "CC(=O)O[C@H]1CC[C@]2(C)[C@H]3CC[C@@]4(C)[C@H](c5ccoc5)OC(=O)[C@H]5O[C@]54[C@]3(C)[C@H](OC(C)=O)C[C@H]2C1(C)C [3beta-acetoxydeoxodihydrogedunin]", "nucOX": "−1.055"}
{"Compound": "CC(C)c1c(O)ccc2c1CCC1[C@@](C)(C=O)CCC[C@]21C (stereo partly drawn)", "nucOX": "−0.401"}
{"Compound": "C=CC(C1=CC(=O)C(OC)=C(OC)C1=O)c1ccccc1 (stereo not drawn) [3,4-dimethoxydalbergione, reference compound]", "nucOX": "−2.944"}
{"Compound": "CC(=O)OC1CC2C(C)(C)[C@@H](O)CC[C@]2(C)C2CC[C@]3(C)[C@H](c4ccoc4)OC(=O)[C@H]4O[C@]43[C@]12C (stereo partly drawn) [3beta-hydroxydeoxodihydrogedunin]", "nucOX": "−0.648"}
{"Compound": "COc1c2c(cc3c1OCO3)CC[N+](C)=C2", "nucOX": 0.159}
{"Compound": "C=C1C[C@]23C[C@@]1(O)CC[C@H]2[C@@]12C=C[C@H](O)[C@@](C)(C(=O)O1)[C@H]2[C@@H]3C(=O)O", "nucOX": 0.077}
{"Compound": "COC(=O)c1cccc2cc(OC)c(OC)c(OC)c2c1=O", "nucOX": 0.287}
{"Compound": "COC(=O)[C@H](O)[C@H]1C(C)(C)[C@H](OC(C)=O)[C@@H]2CC3=C4CC(=O)O[C@@H](c5ccoc5)[C@]4(C)CC[C@@H]3[C@@]1(C)C2=O [swietenolide-3-acetate]", "nucOX": "−1.093"}
{"Compound": "COC(=O)C[C@H]1C2(C)CC34OC5(C)O[C@@]6([C@H](OC)C(OC(=O)C(C)C)[C@]7(C)C(/C(=C(/OC)C(C)C)C(=O)O[C@H]7c7ccoc7)[C@@]6(O5)[C@H](OC)[C@@]3(OC)C2OC(C)=O)[C@]14C (stereo partly drawn)", "nucOX": 0.417}
{"Compound": "C[C@H](C[C@@H](O)[C@@H]1OC1(C)C)[C@@H]1CC[C@]2(C)C3=CC[C@H]4C(C)(C)C(=O)CC[C@]4(C)[C@H]3CC[C@@]12C (stereo in doubt)", "nucOX": 0.648}

Notebook: CC(C)=CCc1c(O)cc(C)oc1=O [2-isoprenyl-3-hydroxy-5-methyl-a-pyrone] , nucOX read as 0.277

Notebook: COC(=O)C[C@H]1C(C)(C)[C@@H](OC(C)=O)[C@@H]2CC3C4CC(=O)O[C@@H](c5ccoc5)[C@]4(C)CCC3[C@@]1(C)C2=O (stereo partly drawn) [dihydrofissinolide] , nucOX read as −0.350

###

- System: mtOXPHOS transcripts
- Assay type: cell-based, mouse
- Run Parameters: composite Z-score vs DMSO; Conc 20 μM
Is mitoOX at least -0.3? Then True. If not, False.

Reference set, count: 2
{"Molecule": "C=C[C@H]1C[N@@]2CC[C@H]1C[C@@H]2[C@@H](O)c1ccnc2ccc(OC)cc12", "Assigned Category": "True"}
{"Molecule": "COc1cc(O)c(C(=O)/C=C/c2ccccc2)c(OC)c1", "Assigned Category": "False"}

API: above_or_equal(metric=mitoOX, cutoff=-0.3) for item COc1ccc2c(c1)C1(C)CCC(O)CC1CC2 (centres unmarked) True

API: above_or_equal(metric=mitoOX, cutoff=-0.3) for item `COc1cc(O)c2c(=O)cc(-c3ccc(OC)c(-c4c(O)cc(O)c5c(=O)cc(-c6ccc(O)cc6)oc45)c3)oc2c1` False

API: above_or_equal(metric=mitoOX, cutoff=-0.3) for item COC(=O)C(C)c1ccc(C(=O)c2cccs2)cc1 (centres unmarked) True

API: above_or_equal(metric=mitoOX, cutoff=-0.3) for item COC(=O)c1c(C)cc(O)cc1O [methyl orsellinate] False

API: above_or_equal(metric=mitoOX, cutoff=-0.3) for item COc1ccc(-c2c(O)c3c(OC)c4c(cc3oc2=O)OC(C)(C)CC4)cc1 [dihydrorobustic acid, reference compound] False

API: above_or_equal(metric=mitoOX, cutoff=-0.3) for item `Cc1cc(O)c(C)c(O)c1C(=O)O` True

API: above_or_equal(metric=mitoOX, cutoff=-0.3) for item Oc1cc(O)c2c(c1)O[C@H](c1ccc(O)c(O)c1)[C@H](O)C2 [epicatechin, reference compound] True

Data credit: patent US20090143279A1
